Cited source: PubChem BioAssay AID1919000

Test system: 653999-131-R-J2-PDC complex spheroids, growth % test/control
Experiment Summary: Anticancer human tumor 653999-131-R-J2-PDC patient-derived lung adenocarcinoma cell line growth inhibition [AhR]
Run Parameters: second compound 1 µM; first compound 0.1 µM; stronger effect = lower value
Reported Endpoint: viability, T/C (%)
Respond numerically; units are % and should not be typed.

Any idea what viability, T/C was measured for Cn1ncnc1C1c2n[nH]c(=O)c3cc(F)cc(c23)NC1c1ccc(F)cc1 (stereo not drawn) + Cc1cncc(-c2nc(NCCc3c[nH]c4ccccc34)c3ncn(C(C)C)c3n2)c1 ?
94

Any idea what viability, T/C was measured for O=C(C=Cc1cccc(S(=O)(=O)Nc2ccccc2)c1)NO + Cc1ccccc1N=Nc1ccc(NC(=O)c2ccnn2C)c(C)c1 ?
101

Any idea what viability, T/C was measured for O=C(c1cc(Cc2n[nH]c(=O)c3ccccc23)ccc1F)N1CCN(C(=O)C2CC2)CC1 + Cc1ccccc1N=Nc1ccc(NC(=O)c2ccnn2C)c(C)c1 ?
104

Any idea what viability, T/C was measured for CC1(C)CCC(CN2CCN(c3ccc(C(=O)NS(=O)(=O)c4ccc(NCC5CCOCC5)c([N+](=O)[O-])c4)c(Oc4cnc5[nH]ccc5c4)c3)CC2)=C(c2ccc(Cl)cc2)C1 + CC(CO)NC(=O)c1cc(-c2ccc(Cl)cc2)nn(-c2cnn(C)c2)c1=O ?
104

Any idea what viability, T/C was measured for COc1ccc([C@@H](O)c2cc(-c3ncnc4cc(N5CCOCC5)ccc34)c(F)cc2Cl)nn1 + Cc1cncc(-c2nc(NCCc3c[nH]c4ccccc34)c3ncn(C(C)C)c3n2)c1 ?
123

More entries:
Any idea what viability, T/C was measured for COc1ccc([C@@H](O)c2cc(-c3ncnc4cc(N5CCOCC5)ccc34)c(F)cc2Cl)nn1 + Cc1ccccc1N=Nc1ccc(NC(=O)c2ccnn2C)c(C)c1 ?
94.5

Any idea what viability, T/C was measured for CC1COCCN1c1cc(C2(S(C)(=N)=O)CC2)nc(-c2ccnc3[nH]ccc23)n1 (stereo not drawn) + Cc1cncc(-c2nc(NCCc3c[nH]c4ccccc34)c3ncn(C(C)C)c3n2)c1 ?
110

Any idea what viability, T/C was measured for Nc1ncn(C2CC(O)C(CO)O2)c(=O)n1 (stereo not drawn) + CC(CO)NC(=O)c1cc(-c2ccc(Cl)cc2)nn(-c2cnn(C)c2)c1=O ?
109

###

This listing pairs compounds with measured pIC50.
Tested on: 653999-131-R-J2-PDC complex spheroids, growth % test/control
Experiment Summary: Anticancer human tumor 653999-131-R-J2-PDC cell line growth inhibition [AhR];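 further: spheroids exposed to agents for seven days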
Run Parameters: curve of first compound; second compound 0.1 µM
pIC50: −log10 of the molar value.

In the examples that follow, each entry is paired with its recorded pIC50.
Any idea what pIC50 was measured for Nc1ncn(C2CC(O)C(CO)O2)c(=O)n1 (stereo unspecified) + CC(CO)NC(=O)c1cc(-c2ccc(Cl)cc2)nn(-c2cnn(C)c2)c1=O ?
< 6.00

Any idea what pIC50 was measured for Cn1ncnc1C1c2n[nH]c(=O)c3cc(F)cc(c23)NC1c1ccc(F)cc1 (stereo unspecified) + Cc1cncc(-c2nc(NCCc3c[nH]c4ccccc34)c3ncn(C(C)C)c3n2)c1 ?
< 7.00

Any idea what pIC50 was measured for CC(C)CC(NC(=O)C(Cc1ccccc1)NC(=O)c1cnccn1)B(O)O (stereo unspecified) + Cc1ccccc1N=Nc1ccc(NC(=O)c2ccnn2C)c(C)c1 ?
7.69

More entries:
Any idea what pIC50 was measured for Nc1ncn(C2CC(O)C(CO)S2)c(=O)n1 (stereo unspecified) + Cc1cncc(-c2nc(NCCc3c[nH]c4ccccc34)c3ncn(C(C)C)c3n2)c1 ?
< 6.52

Any idea what pIC50 was measured for CC1COCCN1c1cc(C2(S(C)(=N)=O)CC2)nc(-c2ccnc3[nH]ccc23)n1 (stereo unspecified) + CC(CO)NC(=O)c1cc(-c2ccc(Cl)cc2)nn(-c2cnn(C)c2)c1=O ?
5.05

Any idea what pIC50 was measured for Cn1ncnc1C1c2n[nH]c(=O)c3cc(F)cc(c23)NC1c1ccc(F)cc1 (stereo unspecified) + CC(CO)NC(=O)c1cc(-c2ccc(Cl)cc2)nn(-c2cnn(C)c2)c1=O ?
< 7.00

###

Test system: 653999-131-R-J2-PDC complex spheroids, growth % test/control
Experiment Summary: Anticancer human tumor 653999-131-R-J2-PDC cell line growth inhibition [AhR];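 further: spheroids exposed to agents for seven days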;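 on viability, T/C: 100% = DMSO vehicle control viability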
Run Parameters: second compound 0.316 µM; first compound 0.949 µM; stronger effect = lower value
This listing pairs compounds with measured viability, T/C.
Respond numerically; units are % and should not be typed.

In the examples that follow, each entry is paired with its recorded viability, T/C.
Any idea what viability, T/C was measured for O=C(C=Cn1cnc(-c2cc(C(F)(F)F)cc(C(F)(F)F)c2)n1)NNc1cnccn1 + CC(CO)NC(=O)c1cc(-c2ccc(Cl)cc2)nn(-c2cnn(C)c2)c1=O ?
51.1

Any idea what viability, T/C was measured for CCN(c1cc(-c2ccc(CN3CCOCC3)cc2)cc(C(=O)NCc2c(C)cc(C)[nH]c2=O)c1C)C1CCOCC1 + CC(CO)NC(=O)c1cc(-c2ccc(Cl)cc2)nn(-c2cnn(C)c2)c1=O ?
101

More entries:
Any idea what viability, T/C was measured for O=C(C=Cn1cnc(-c2cc(C(F)(F)F)cc(C(F)(F)F)c2)n1)NNc1cnccn1 + Cc1cncc(-c2nc(NCCc3c[nH]c4ccccc34)c3ncn(C(C)C)c3n2)c1 ?
39.3

###

This listing pairs molecules with measured viability, T/C.
Test system: 653999-131-R-J2-PDC complex spheroids, growth % test/control
Experiment Summary: Anticancer human tumor 653999-131-R-J2-PDC cell line growth inhibition [AhR];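 further: spheroids exposed to agents for seven days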;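 on viability, T/C: 100% = DMSO vehicle control viability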
Run Parameters: second compound 10 µM; first compound 0.01 µM; stronger effect = lower value
Respond numerically; units are % and should not be typed.

Record Cn1ncnc1C1c2n[nH]c(=O)c3cc(F)cc(c23)NC1c1ccc(F)cc1 (stereo not drawn) + CC(CO)NC(=O)c1cc(-c2ccc(Cl)cc2)nn(-c2cnn(C)c2)c1=O : what is its viability, T/C with 653999-131-R-J2-PDC complex spheroids, growth % test/control?
97.1

Record CC1COCCN1c1cc(-c2ccnn2C)c2ccnc(-c3ccn[nH]3)c2n1 (stereo not drawn) + CC(CO)NC(=O)c1cc(-c2ccc(Cl)cc2)nn(-c2cnn(C)c2)c1=O : what is its viability, T/C with 653999-131-R-J2-PDC complex spheroids, growth % test/control?
86.4

Proceeding to the next molecule to report its viability, T/C.
Record Nc1ncn(C2CC(O)C(CO)O2)c(=O)n1 (stereo not drawn) + Cc1cncc(-c2nc(NCCc3c[nH]c4ccccc34)c3ncn(C(C)C)c3n2)c1 : what is its viability, T/C with 653999-131-R-J2-PDC complex spheroids, growth % test/control?
52.4

###

This listing pairs compounds with measured viability, T/C.
Test system: 653999-131-R-J2-PDC complex spheroids, growth % test/control
Experiment Summary: Anticancer human tumor 653999-131-R-J2-PDC cell line growth inhibition [AhR];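 further: spheroids exposed to agents for seven days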;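 on viability, T/C: 100% = DMSO vehicle control viability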
Run Parameters: second compound 0.316 µM; first compound 3.16 µM; stronger effect = lower value
Respond numerically; units are % and should not be typed.

In the examples that follow, each entry is paired with its recorded viability, T/C.
Any idea what viability, T/C was measured for Nc1ccccc1NC(=O)c1ccc(CNC(=O)OCc2cccnc2)cc1 + CC(CO)NC(=O)c1cc(-c2ccc(Cl)cc2)nn(-c2cnn(C)c2)c1=O ?
55.5

Any idea what viability, T/C was measured for NS(=O)(=O)OCC1CC(n2ccc3c(NC4CCc5ccccc54)ncnc32)CC1O (stereo unspecified) + Cc1ccccc1N=Nc1ccc(NC(=O)c2ccnn2C)c(C)c1 ?
72.7

More entries:
Any idea what viability, T/C was measured for O=C(C=Cc1cccc(S(=O)(=O)Nc2ccccc2)c1)NO + CC(CO)NC(=O)c1cc(-c2ccc(Cl)cc2)nn(-c2cnn(C)c2)c1=O ?
55

Any idea what viability, T/C was measured for COc1cccc2c1C(=O)c1c(O)c3c(c(O)c1C2=O)CC(O)(C(=O)CO)CC3OC1CC(N)C(O)C(C)O1 (stereo unspecified) + CC(CO)NC(=O)c1cc(-c2ccc(Cl)cc2)nn(-c2cnn(C)c2)c1=O ?
4.91

Any idea what viability, T/C was measured for COc1cc(C2c3cc4c(cc3C(OC3OC5COC(C)OC5C(O)C3O)C3COC(=O)C23)OCO4)cc(OC)c1O (stereo unspecified) + CC(CO)NC(=O)c1cc(-c2ccc(Cl)cc2)nn(-c2cnn(C)c2)c1=O ?
36.5

Any idea what viability, T/C was measured for Nc1ccn(C2OC(CO)C(O)C2(F)F)c(=O)n1 (stereo unspecified) + CC(CO)NC(=O)c1cc(-c2ccc(Cl)cc2)nn(-c2cnn(C)c2)c1=O ?
46.5

###

This listing pairs compounds with measured viability, T/C.
Test system: 653999-131-R-J2-PDC complex spheroids, growth % test/control
Experiment Summary: Anticancer human tumor 653999-131-R-J2-PDC cell line growth inhibition [AhR];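 further: spheroids exposed to agents for seven days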;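 on viability, T/C: 100% = DMSO vehicle control viability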
Run Parameters: second compound 0.1 µM; first compound 1 µM; stronger effect = lower value
Respond numerically; units are % and should not be typed.

In the examples that follow, each entry is paired with its recorded viability, T/C.
Any idea what viability, T/C was measured for Nc1ccccc1NC(=O)c1ccc(CNC(=O)OCc2cccnc2)cc1 + Cc1ccccc1N=Nc1ccc(NC(=O)c2ccnn2C)c(C)c1 ?
73.7

Any idea what viability, T/C was measured for COc1ccc([C@@H](O)c2cc(-c3ncnc4cc(N5CCOCC5)ccc34)c(F)cc2Cl)nn1 + CC(CO)NC(=O)c1cc(-c2ccc(Cl)cc2)nn(-c2cnn(C)c2)c1=O ?
73.6

Any idea what viability, T/C was measured for CC1COCCN1c1cc(-c2ccnn2C)c2ccnc(-c3ccn[nH]3)c2n1 (stereo unspecified) + Cc1cncc(-c2nc(NCCc3c[nH]c4ccccc34)c3ncn(C(C)C)c3n2)c1 ?
25.2

Any idea what viability, T/C was measured for O=C(C=Cc1cccc(S(=O)(=O)Nc2ccccc2)c1)NO + Cc1cncc(-c2nc(NCCc3c[nH]c4ccccc34)c3ncn(C(C)C)c3n2)c1 ?
74.5

Any idea what viability, T/C was measured for O=C(C=Cc1cccc(S(=O)(=O)Nc2ccccc2)c1)NO + Cc1ccccc1N=Nc1ccc(NC(=O)c2ccnn2C)c(C)c1 ?
94.7

Proceeding to the next compound to report its viability, T/C.
Any idea what viability, T/C was measured for CC1(C)CCC(CN2CCN(c3ccc(C(=O)NS(=O)(=O)c4ccc(NCC5CCOCC5)c([N+](=O)[O-])c4)c(Oc4cnc5[nH]ccc5c4)c3)CC2)=C(c2ccc(Cl)cc2)C1 + CC(CO)NC(=O)c1cc(-c2ccc(Cl)cc2)nn(-c2cnn(C)c2)c1=O ?
94.1
